The measurements presented in this section are drawn from ChEMBL document CHEMBL2406902.

Assay: Metabolic stability in human liver microsomes assessed as compound remaining at 1 uM after 30 mins by LC/MS analysis
Type: ADME, Microsome
Conditions: read-out: Stability
Reported property: remaining at 0.5 h, 1 µM (%)

>>> df
                           structure_smiles  reading_unit  experimental_result
0  CCOCc1c(C(=O)NCc2cncn2C)cnn1-c1ncc(C)c(N2CCC2)n1             %                   76
1  CCOCc1c(C(=O)NCc2cncn2C)cnn1-c1ncc(C)c(N2CCCCC2)n1             %                   88
2  CCOCc1c(C(=O)NCc2cncn2C)cnn1-c1ncc(C)c(OCC)n1             %                   77
3  CCOCc1c(C(=O)NCc2cncn2C)cnn1-c1ncc(C)c(-c2cccs2)n1             %                   71
4  CCCCc1c(C(=O)NCc2cncn2C)cnn1-c1ncc(C)c(-c2cccs2)n1             %                   74
5  CCOCc1c(C(=O)NCc2cncn2C)cnn1-c1ncc(C)c(NC2CCC2)n1             %                   87
6  CCOCc1c(C(=O)NCc2cncn2C)cnn1-c1ncc(C)c(N2CCCC2)n1             %                   69
